# System: Japanese bush cranberry
# method description: Experiment 3 foliar application to naturally growing shrubs; also: key: -: no reproduction, namely complete suppression of reproduction; ±: remarkable suppression of reproduction; +: considerable suppression of reproduction; ++: medium supprestion of reproduction; +++: no suppression of reproduction
# Type: in vivo, Viburnum dilatatum Thunb.
# test settings: 0.1%; after 3 months
# Experimental: The detail of the assessment made in the following Experiments of the invention was as follows: […] 0.1% of octylphenyl polyoxyethanol was added as the surfactant. The killing index (0, no effect; 5, death) after 1 month and 3 months, and the reproduction-inhibiting effect (-, no reproduction; +++, maximum reproduction) after 3 months were determined.
Where a name gives a salt, the structure may show the parent alone.
parameter: Reproduction-inhibiting

compound="C[C@H](NC(=O)[C@H](C)NC(=O)[C@@H](N)CCP(C)(=O)O)C(=O)O [(L-2-Amino-4-methylphosphinobutyryl)-L-alanyl-L-alanine mono]" val=+
compound="C[C@H](NC(=O)[C@H](C)NC(=O)[C@@H](N)CCP(C)(=O)O)C(=O)O [SF-1293 choline]" val=-
compound="CP(=O)(O)CC[C@H](N)C(=O)O [L-AMPB choline]" val=-
compound="CP(=O)(O)CC[C@H](N)C(=O)O [L-2-Amino-4-methylphosphinobutanoic acid monodiethanolammoni]" val=++
compound="O=C(O)CNCP(=O)(O)O [Glyphosate, N-phosphonomethylglycine]" val=+++
compound="O=C([O-])C(F)(F)C(F)F.[Na+] [sodium 2,2,3,3-tetrafluoropropionate]" val=+++
compound="CP(=O)(O)CCC(N)C(=O)O (racemic) [monosodium salt]" val=++
compound="CP(=O)(O)CCC(N)C(=O)O (racemic) [DL-AMPB choline]" val=++
compound="CP(=O)(O)CCC(N)C(=O)O (racemic) [DL-2-Amino-4-methylphosphinobutanoic acid monodiethanolammon]" val=++

----------
# System: water hyacinth
# method description: Experiment 5 foliar application to water hyacinths; also: key: -: no reproduction, namely complete suppression of reproduction; ±: remarkable suppression of reproduction; +: considerable suppression of reproduction; ++: medium supprestion of reproduction; +++: no suppression of reproduction
# Assay type: in vivo, Eichhornia crassipes Solms
# test settings: 0.1%; 3 months
# Procedure: The detail of the assessment made in the following Experiments of the invention was as follows: […] The killing index (0, no effect; 5, death) after 21 days and 3 months, and the reproduction-inhibiting effect (-, no reproduction; +++, maximum reproduction) after 3 months were determined.
Where a name gives a salt, the structure may show the parent alone.
parameter: Reproduction-inhibiting effect

compound="CP(=O)(O)CC[C@H](N)C(=O)O [L-AMPB choline]" parameter="Reproduction-inhibiting effect" val=-
compound="CP(=O)(O)CCC(N)C(=O)O (racemic) [DL-AMPB dipotassium salt]" parameter="Reproduction-inhibiting effect" val=++
compound="C[C@H](NC(=O)[C@H](C)NC(=O)[C@@H](N)CCP(C)(=O)O)C(=O)O [SF-1293 disodium salt]" parameter="Reproduction-inhibiting effect" val=+
compound="C[C@H](NC(=O)[C@H](C)NC(=O)[C@@H](N)CCP(C)(=O)O)C(=O)O [SF-1293 monodiethylammonium salt]" parameter="Reproduction-inhibiting effect" val=+
compound="CP(=O)(O)CC[C@H](N)C(=O)O [L-AMPB mono-n-butylammonium salt]" parameter="Reproduction-inhibiting effect" val=±
compound="CP(=O)(O)CC[C@H](N)C(=O)O [L-AMPB disodium salt]" parameter="Reproduction-inhibiting effect" val=±
compound="CP(=O)(O)CCC(N)C(=O)O (racemic) [DL-AMPB mono-n-butylammonium salt]" parameter="Reproduction-inhibiting effect" val=++
compound="C[C@H](NC(=O)[C@H](C)NC(=O)[C@@H](N)CCP(C)(=O)O)C(=O)O [SF-1293 dipotassium salt]" parameter="Reproduction-inhibiting effect" val=+

----------
# Test system: white clover
# method description: Experiment 1 foliar application to naturally growing weeds; also: key: -: no reproduction, namely complete suppression of reproduction; ±: remarkable suppression of reproduction; +: considerable suppression of reproduction; ++: medium supprestion of reproduction; +++: no suppression of reproduction
# Type: in vivo, Trifolium repens L.
# test settings: 0.1%; 4 months
parameter: Reproduction-inhibiting effect

compound="C[C@H](NC(=O)[C@H](C)NC(=O)[C@@H](N)CCP(C)(=O)O)C(=O)O [SF-1293 choline]" parameter="Reproduction-inhibiting effect" val=-
compound="CP(=O)(O)CCC(N)C(=O)O (racemic) [DL-AMPB choline]" parameter="Reproduction-inhibiting effect" val=±
compound="CP(=O)(O)CCC(N)C(=O)O (racemic) [DL-2-Amino-4-methylphosphinobutanoic acid monodiethanolammon]" parameter="Reproduction-inhibiting effect" val=+++
compound="O=C(O)CNCP(=O)(O)O [Glyphosate, N-phosphonomethylglycine]" parameter="Reproduction-inhibiting effect" val=++
compound="CP(=O)(O)CC[C@H](N)C(=O)O [L-AMPB choline]" parameter="Reproduction-inhibiting effect" val=-
compound="CP(=O)(O)CC[C@H](N)C(=O)O [L-2-Amino-4-methylphosphinobutanoic acid monodiethanolammoni]" parameter="Reproduction-inhibiting effect" val=-
compound="C[C@H](NC(=O)[C@H](C)NC(=O)[C@@H](N)CCP(C)(=O)O)C(=O)O [(L-2-Amino-4-methylphosphinobutyryl)-L-alanyl-L-alanine mono]" parameter="Reproduction-inhibiting effect" val=+++

----------
# Tested on: water hyacinth
# method description: Experiment 5 foliar application to water hyacinths; also: key: -: no reproduction, namely complete suppression of reproduction; ±: remarkable suppression of reproduction; +: considerable suppression of reproduction; ++: medium supprestion of reproduction; +++: no suppression of reproduction
# Type: in vivo, Eichhornia crassipes Solms
# test settings: 0.1%; 3 months
Where a name gives a salt, the structure may show the parent alone.
parameter: Reproduction-inhibiting effect

compound="C[C@H](NC(=O)[C@H](C)NC(=O)[C@@H](N)CCP(C)(=O)O)C(=O)O [SF-1293 monopotassium salt]" tgt="water hyacinth" val=+
compound="CP(=O)(O)CC[C@H](N)C(=O)O [L-AMPB monodiethylammonium salt]" tgt="water hyacinth" val=±
compound="CP(=O)(O)CC[C@H](N)C(=O)O [L-AMPB diammonium salt]" tgt="water hyacinth" val=±
compound="CP(=O)(O)CCC(N)C(=O)O (racemic) [DL-AMPB monodiethylammonium salt]" tgt="water hyacinth" val=++
compound="C[C@H](NC(=O)[C@H](C)NC(=O)[C@@H](N)CCP(C)(=O)O)C(=O)O [SF-1293 mono-n-butylammonium salt]" tgt="water hyacinth" val=+

----------
# Tested on: purple nutsedge
# method description: Experiment 1 foliar application to naturally growing weeds
# Format: in vivo, Cyperus rotundus L.
# test settings: 0.2%; 4 months
parameter: Reproduction-inhibiting effect

compound="CP(=O)(O)CC[C@H](N)C(=O)O [L-2-Amino-4-methylphosphinobutanoic acid monodiethanolammoni]" parameter="Reproduction-inhibiting effect" val=±
compound="CP(=O)(O)CC[C@H](N)C(=O)O [L-AMPB choline]" parameter="Reproduction-inhibiting effect" val=-
compound="CP(=O)(O)CCC(N)C(=O)O (racemic) [DL-2-Amino-4-methylphosphinobutanoic acid monodiethanolammon]" parameter="Reproduction-inhibiting effect" val=+
compound="C[C@H](NC(=O)[C@H](C)NC(=O)[C@@H](N)CCP(C)(=O)O)C(=O)O [SF-1293 choline]" parameter="Reproduction-inhibiting effect" val=±
compound="O=C(O)CNCP(=O)(O)O [Glyphosate, N-phosphonomethylglycine]" parameter="Reproduction-inhibiting effect" val=+
compound="C[C@H](NC(=O)[C@H](C)NC(=O)[C@@H](N)CCP(C)(=O)O)C(=O)O [(L-2-Amino-4-methylphosphinobutyryl)-L-alanyl-L-alanine mono]" parameter="Reproduction-inhibiting effect" val=+
compound="CP(=O)(O)CCC(N)C(=O)O (racemic) [DL-AMPB choline]" parameter="Reproduction-inhibiting effect" val=±

----------
# Tested on: azumanezasa
# method description: Experiment 1 foliar application to naturally growing weeds
# Type: in vivo, Pleioblastus Chino Makino
# test settings: 0.1%; 4 months
Counter-ions that a name gives are not always drawn.
parameter: Reproduction-inhibiting effect

molecule="O=C(O)CNCP(=O)(O)O [Glyphosate, N-phosphonomethylglycine]" val=++
molecule="CP(=O)(O)CC[C@H](N)C(=O)O [L-2-Amino-4-methylphosphinobutanoic acid monodiethanolammoni]" val=-
molecule="C[C@H](NC(=O)[C@H](C)NC(=O)[C@@H](N)CCP(C)(=O)O)C(=O)O [(L-2-Amino-4-methylphosphinobutyryl)-L-alanyl-L-alanine mono]" val=+
molecule="CP(=O)(O)CCC(N)C(=O)O (racemic) [DL-AMPB choline]" val=±
molecule="C[C@H](NC(=O)[C@H](C)NC(=O)[C@@H](N)CCP(C)(=O)O)C(=O)O [SF-1293 choline]" val=-
molecule="CP(=O)(O)CCC(N)C(=O)O (racemic) [DL-2-Amino-4-methylphosphinobutanoic acid monodiethanolammon]" val=+
molecule="CP(=O)(O)CC[C@H](N)C(=O)O [monosodium salt]" val=-
molecule="CP(=O)(O)CC[C@H](N)C(=O)O [L-AMPB choline]" val=-

----------
# System: hedge bindweed
# method description: Experiment 1 foliar application to naturally growing weeds
# Format: in vivo, Calystegis hederacea Wall.
# test settings: 0.2%; 4 months
parameter: Reproduction-inhibiting effect

compound="CP(=O)(O)CC[C@H](N)C(=O)O [L-2-Amino-4-methylphosphinobutanoic acid monodiethanolammoni]" tgt="hedge bindweed" val=+
compound="CP(=O)(O)CCC(N)C(=O)O (racemic) [DL-AMPB choline]" tgt="hedge bindweed" val=-
compound="C[C@H](NC(=O)[C@H](C)NC(=O)[C@@H](N)CCP(C)(=O)O)C(=O)O [(L-2-Amino-4-methylphosphinobutyryl)-L-alanyl-L-alanine mono]" tgt="hedge bindweed" val=+++
compound="CP(=O)(O)CC[C@H](N)C(=O)O [L-AMPB choline]" tgt="hedge bindweed" val=-
compound="O=C(O)CNCP(=O)(O)O [Glyphosate, N-phosphonomethylglycine]" tgt="hedge bindweed" val=+++
compound="CP(=O)(O)CCC(N)C(=O)O (racemic) [DL-2-Amino-4-methylphosphinobutanoic acid monodiethanolammon]" tgt="hedge bindweed" val=+++
compound="C[C@H](NC(=O)[C@H](C)NC(=O)[C@@H](N)CCP(C)(=O)O)C(=O)O [SF-1293 choline]" tgt="hedge bindweed" val=-

The measurements presented in this section are drawn from patent US4226610A.
